In this section we review reported log10 of AUC(0-t) values for a set of compounds.
Test: Pharmacokinetic evaluation after single oral administration to ICR mice
Assay type: in vivo
Conditions: mouse; ICR mice, single oral dose 5 mg/kg, plasma; read-out: AUC0-24
Result Type: log10 of AUC(0-t) (log10 of the value in ng·h/mL)

{"Compound": "COc1cc(N2CCC(CN3CCN(CC(=O)Nc4cccc5c4CN(C4CCC(=O)NC4=O)C5=O)CC3)CC2)ccc1Nc1ncc(Cl)c(Nc2ccccc2N(C)S(C)(=O)=O)n1 (centres unmarked)", "log10 of AUC(0-t)": 1.23}
{"Compound": "COc1cc(N2CCN(CC3CCN(C(=O)[C@H](C)Nc4cccc5c4C(=O)N(C4CCC(=O)NC4=O)C5=O)CC3)CC2)c(C)cc1Nc1ncc(Cl)c(Nc2ccccc2N(C)S(C)(=O)=O)n1 (some centres unmarked)", "log10 of AUC(0-t)": 3.31}
{"Compound": "CN(c1ccccc1Nc1nc(Nc2ccc(N3CCN(CC4CCN(C(=O)COc5cccc6c5C(=O)N(C5CCC(=O)NC5=O)C6=O)CC4)CC3)c(F)c2)ncc1Cl)S(C)(=O)=O (centres unmarked)", "log10 of AUC(0-t)": 2.54}
{"Compound": "COc1cc(N2CCC(N3CCN(CC(=O)N[C@H](C(=O)N4C[C@H](O)C[C@@H]4C(=O)NCc4ccc(-c5scnc5C)cc4)C(C)(C)C)CC3)CC2)ccc1Nc1ncc(Cl)c(Nc2ccccc2N(C)S(C)(=O)=O)n1", "log10 of AUC(0-t)": 2.74}
{"Compound": "COc1cc(N2CCN(CC3CCN(C(=O)CNc4cccc5c4C(=O)N(C4CCC(=O)NC4=O)C5=O)CC3)CC2)c(C)cc1Nc1ncc(Cl)c(Nc2ccccc2N(C)S(C)(=O)=O)n1 (centres unmarked)", "log10 of AUC(0-t)": 3.02}

----------
Test: Pharmacokinetic evaluation after single oral administration to ICR mice
Assay type: in vivo
Settings: mouse; ICR mice, single oral dose 5 mg/kg, plasma; read-out: AUC0-24
In this section we review reported AUC(0-t) values for a set of compounds.
Result Type: AUC(0-t) (ng·h/mL)

{"Compound": "COc1cc(N2CCC(CN3CCN(c4ccc5c(c4)C(=O)N(C4CCC(=O)NC4=O)C5=O)CC3)CC2)c(C)cc1Nc1ncc(Cl)c(Nc2ccccc2N(C)S(C)(=O)=O)n1 (stereo not drawn)", "Unit Of Measurement": "ng·h/mL", "Reported Result": 1130}
{"Compound": "COc1cc(N2CCN(CC3CCN(CC(=O)Nc4cccc5c4CN(C4CCC(=O)NC4=O)C5=O)CC3)CC2)ccc1Nc1ncc(Cl)c(Nc2ccccc2N(C)S(C)(=O)=O)n1 (stereo not drawn)", "Unit Of Measurement": "ng·h/mL", "Reported Result": 32}
{"Compound": "COc1cc(N2CCN(CC3CCN(C(=O)[C@H](C)Oc4cccc5c4C(=O)N(C4CCC(=O)NC4=O)C5=O)CC3)CC2)c(C)cc1Nc1ncc(Cl)c(Nc2ccccc2N(C)S(C)(=O)=O)n1 (stereo partly drawn)", "Unit Of Measurement": "ng·h/mL", "Reported Result": 366}

----------
Experiment: Pharmacokinetic evaluation after single oral administration to ICR mice
Type: in vivo
Conditions: mouse; ICR mice, single oral dose 5 mg/kg, plasma

{"Compound": "CN(c1ccccc1Nc1nc(Nc2ccc(N3CCN(CC4CCN(C(=O)COc5cccc6c5C(=O)N(C5CCC(=O)NC5=O)C6=O)CC4)CC3)c(F)c2)ncc1Cl)S(C)(=O)=O (stereo not drawn)", "half-life [h]": 5.07}
{"Compound": "COc1cc(N2CCN(CC3CCN(C(=O)CCc4cccc5c4C(=O)N(C4CCC(=O)NC4=O)C5=O)CC3)CC2)ccc1Nc1ncc(Cl)c(Nc2ccccc2N(C)S(C)(=O)=O)n1 (stereo not drawn)", "half-life [h]": 6.12}
{"Compound": "COc1cc(N2CCC(CN3CCN(CC(=O)Nc4cccc5c4CN(C4CCC(=O)NC4=O)C5=O)CC3)CC2)ccc1Nc1ncc(Cl)c(Nc2ccccc2N(C)S(C)(=O)=O)n1 (stereo not drawn)", "half-life [h]": 12.4}
